target: Huntingtin (Homo sapiens); test: mutant huntingtin-calmodulin interaction inhibitors – biochemical, AlphaScreen, primary screen (AID 1671202); details: AlphaScreen His-mHTT/GST-CaM binding, luminescence; at 15 µM;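 also: 0% = both proteins with DMSO and 100% = one protein alone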
Screen size: about 190,000 compounds; about 6,900 (3.6%) were called active. Rule as the data show it: active = inhibition above about 50%; inactive = the rest. What follows is part of a selection rich in actives, with near analogues and random picks from the rest.
Can you answer with just one of these options? active, inactive

Reference set, count: 3
{"mol.smiles": "CC(=O)Nc1ccc(NC(=O)c2ccc(N(C)C)cc2)cc1", "group": "inactive"}
{"mol.smiles": "Cc1ccc(C(=O)Nc2ccc(N(C)C)cc2)cc1C", "group": "active"}
{"mol.smiles": "CCOc1ccc2c(=O)c(Oc3ccccc3)coc2c1", "group": "inactive"}

Q: Record request — test call for `CC(=O)c1c(C(C)=O)c(C)n(Cc2ccco2)c1C`
A: inactive

Q: GET /call?item= `CC(=O)c1ccc(NC(=O)c2ccc(CN(c3ccc(C)c(C)c3)S(C)(=O)=O)cc2)cc1` returns the recorded outcome of this test.
A: inactive

Q: Record request — test call for `Cc1sc2ncnc(N3CCN(c4ccccn4)CC3)c2c1-c1ccc(F)cc1`
A: inactive

---

Answer each item with its documented inhibition.
biological target: Huntingtin (Homo sapiens) (UniProt P42858); experiment: mutant huntingtin-calmodulin interaction inhibitors – biochemical, AlphaScreen, primary screen (AID 1671202); conditions: AlphaScreen His-mHTT/GST-CaM binding, luminescence; at 15 µM, active compounds read high;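 also: 0% = both proteins with DMSO and 100% = one protein alone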
Sequence (P42858 whole entry, looked up, stated change not applied): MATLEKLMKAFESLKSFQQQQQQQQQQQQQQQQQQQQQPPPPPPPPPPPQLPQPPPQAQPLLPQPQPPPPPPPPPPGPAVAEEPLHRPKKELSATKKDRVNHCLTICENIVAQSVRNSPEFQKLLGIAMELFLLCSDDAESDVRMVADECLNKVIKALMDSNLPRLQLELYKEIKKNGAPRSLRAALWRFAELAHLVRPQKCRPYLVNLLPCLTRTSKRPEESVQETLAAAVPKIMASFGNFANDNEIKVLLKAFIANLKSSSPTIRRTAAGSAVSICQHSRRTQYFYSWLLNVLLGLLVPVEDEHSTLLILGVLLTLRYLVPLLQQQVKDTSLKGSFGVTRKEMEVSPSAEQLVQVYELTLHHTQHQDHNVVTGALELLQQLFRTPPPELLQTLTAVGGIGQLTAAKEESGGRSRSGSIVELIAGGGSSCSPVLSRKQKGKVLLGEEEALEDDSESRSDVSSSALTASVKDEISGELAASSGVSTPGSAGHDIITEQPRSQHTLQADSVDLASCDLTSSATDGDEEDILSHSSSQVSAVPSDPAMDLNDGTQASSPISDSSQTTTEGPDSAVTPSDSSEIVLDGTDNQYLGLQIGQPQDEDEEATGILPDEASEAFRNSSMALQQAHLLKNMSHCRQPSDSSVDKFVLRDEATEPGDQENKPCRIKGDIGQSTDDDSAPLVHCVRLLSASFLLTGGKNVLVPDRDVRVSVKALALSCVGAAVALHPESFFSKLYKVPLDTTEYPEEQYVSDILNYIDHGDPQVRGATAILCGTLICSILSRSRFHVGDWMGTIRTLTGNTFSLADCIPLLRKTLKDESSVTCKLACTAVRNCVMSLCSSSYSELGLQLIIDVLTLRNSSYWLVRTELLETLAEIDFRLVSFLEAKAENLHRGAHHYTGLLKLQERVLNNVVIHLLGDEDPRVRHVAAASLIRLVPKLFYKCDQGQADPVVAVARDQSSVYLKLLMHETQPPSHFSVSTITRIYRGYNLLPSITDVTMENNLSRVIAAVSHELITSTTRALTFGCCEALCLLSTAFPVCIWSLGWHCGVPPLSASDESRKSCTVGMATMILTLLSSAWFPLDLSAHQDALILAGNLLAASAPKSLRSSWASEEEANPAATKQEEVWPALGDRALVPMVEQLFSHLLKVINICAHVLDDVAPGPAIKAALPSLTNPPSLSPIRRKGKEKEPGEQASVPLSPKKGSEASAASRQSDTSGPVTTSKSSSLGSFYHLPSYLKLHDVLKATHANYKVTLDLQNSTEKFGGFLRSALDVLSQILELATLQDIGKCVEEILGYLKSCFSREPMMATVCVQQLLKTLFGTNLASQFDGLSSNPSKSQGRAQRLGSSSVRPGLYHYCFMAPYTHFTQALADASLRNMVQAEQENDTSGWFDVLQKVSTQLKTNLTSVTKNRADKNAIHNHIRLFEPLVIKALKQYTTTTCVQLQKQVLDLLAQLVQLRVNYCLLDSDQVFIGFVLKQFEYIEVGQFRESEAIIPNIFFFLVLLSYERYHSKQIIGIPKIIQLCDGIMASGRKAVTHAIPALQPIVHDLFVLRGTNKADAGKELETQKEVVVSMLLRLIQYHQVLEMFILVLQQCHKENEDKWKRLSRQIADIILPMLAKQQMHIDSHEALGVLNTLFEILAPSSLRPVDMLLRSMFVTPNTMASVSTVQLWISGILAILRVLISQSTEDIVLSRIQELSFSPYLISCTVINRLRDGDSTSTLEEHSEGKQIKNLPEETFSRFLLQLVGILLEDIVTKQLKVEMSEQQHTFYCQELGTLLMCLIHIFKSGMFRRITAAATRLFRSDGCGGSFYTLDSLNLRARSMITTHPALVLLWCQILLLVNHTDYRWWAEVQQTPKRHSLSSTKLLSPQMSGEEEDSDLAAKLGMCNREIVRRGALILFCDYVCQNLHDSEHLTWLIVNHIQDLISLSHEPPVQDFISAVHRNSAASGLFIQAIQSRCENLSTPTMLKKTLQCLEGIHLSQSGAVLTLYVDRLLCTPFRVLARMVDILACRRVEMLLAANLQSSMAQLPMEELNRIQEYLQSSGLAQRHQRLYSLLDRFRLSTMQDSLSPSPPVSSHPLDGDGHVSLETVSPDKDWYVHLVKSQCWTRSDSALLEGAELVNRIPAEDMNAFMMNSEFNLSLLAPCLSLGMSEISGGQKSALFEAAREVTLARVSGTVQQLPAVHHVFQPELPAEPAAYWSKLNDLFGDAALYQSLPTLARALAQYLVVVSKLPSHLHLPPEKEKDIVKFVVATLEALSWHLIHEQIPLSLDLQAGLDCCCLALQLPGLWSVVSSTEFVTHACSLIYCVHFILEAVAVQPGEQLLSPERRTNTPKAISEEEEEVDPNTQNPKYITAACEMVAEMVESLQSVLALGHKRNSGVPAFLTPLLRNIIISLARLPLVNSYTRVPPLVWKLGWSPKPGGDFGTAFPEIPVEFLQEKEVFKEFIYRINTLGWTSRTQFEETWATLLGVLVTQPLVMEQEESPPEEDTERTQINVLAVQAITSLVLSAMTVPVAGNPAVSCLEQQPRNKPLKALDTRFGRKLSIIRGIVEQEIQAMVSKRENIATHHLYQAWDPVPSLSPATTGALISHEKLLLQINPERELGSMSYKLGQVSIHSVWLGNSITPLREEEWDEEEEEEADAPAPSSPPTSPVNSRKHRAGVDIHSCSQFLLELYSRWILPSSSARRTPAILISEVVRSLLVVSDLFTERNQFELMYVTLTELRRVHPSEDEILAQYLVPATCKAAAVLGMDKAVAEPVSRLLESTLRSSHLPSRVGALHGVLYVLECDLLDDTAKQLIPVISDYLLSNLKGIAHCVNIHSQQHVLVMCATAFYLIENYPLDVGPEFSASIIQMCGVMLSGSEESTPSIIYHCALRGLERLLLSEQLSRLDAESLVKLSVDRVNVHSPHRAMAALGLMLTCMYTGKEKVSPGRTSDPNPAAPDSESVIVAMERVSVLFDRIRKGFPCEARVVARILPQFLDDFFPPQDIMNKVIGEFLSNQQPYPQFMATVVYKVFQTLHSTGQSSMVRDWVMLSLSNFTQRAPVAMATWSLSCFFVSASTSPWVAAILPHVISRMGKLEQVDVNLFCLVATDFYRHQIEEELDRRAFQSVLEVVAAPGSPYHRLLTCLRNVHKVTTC
The whole screen tested about 190,000 compounds, of which about 6,900 (3.6%) were called active. Many of the other results were omitted from the sample, so actives are more common in it than they were.
Give bare numbers, in %.

Hi! Can you tell me inhibition for each of these compounds?
1. CC(=O)Nc1cccnc1-c1ccc(C(=O)NCc2ccccc2)cc1
2. CCC(CC)C(=O)N1CCc2c(c(-c3nnc(-c4ccccc4Cl)o3)nn2C)C1
3. Cn1c(COc2ccc(Cl)cc2)nc2ccccc2c1=O

A:
1: -2.7; 2: 6.42; 3: 61.9

---

biological target: Huntingtin (Homo sapiens); assay: mutant huntingtin-calmodulin interaction inhibitors – biochemical, AlphaScreen, primary screen (AID 1671202); conditions: AlphaScreen His-mHTT/GST-CaM binding, luminescence; at 15 µM, active compounds read high;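 also: 0% = both proteins with DMSO and 100% = one protein alone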
The campaign covered roughly 190,000 compounds. About 6,900 (3.6%) were called active. The sample holds actives, similar compounds and a random draw of the others, so the mix is not that of the screen.
assay.endpoint: inhibition

{"mol.smiles": "CC(=O)c1cccc(NC(=O)/C(=C\\c2ccc3c(c2)OCO3)NC(=O)c2ccccc2Cl)c1", "inhibition": "7% (inactive)"}

Go through the list and state inhibition for each entry.
1. O=c1oc2ccccc2cc1-c1csc(N=Cc2ccccc2O)n1
2. O=S(=O)(c1ccccc1)c1cccs1
3. Cc1nc(NC(=O)c2ccoc2C)sc1C
4. CCn1cc(CCNC(C)=O)c2cccnc21

A:
1: 26% (inactive); 2: -6.17% (inactive); 3: 10% (inactive); 4: -8.1% (inactive)

For every item in the list below, what is its measured inhibition?
1. CC(C)SCC(=O)Nc1nc(CC(=O)O)cs1
2. COc1ccccc1Nc1cc(C)nc2ccc(Cl)cc12

A:
["1.9% (inactive)", "0% (inactive)"]

---

For each entry below, report its inhibition value.
molecular target: Huntingtin (Homo sapiens) (UniProt P42858); test: mutant huntingtin-calmodulin interaction inhibitors – biochemical, AlphaScreen, primary screen (AID 1671202); conditions: AlphaScreen His-mHTT/GST-CaM binding, luminescence; at 15 µM, active compounds read high;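 also: 0% = both proteins with DMSO and 100% = one protein alone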
In all, about 190,000 compounds went through this assay and about 6,900 (3.6%) were called active. For the sample, actives were picked, then their nearest neighbours and some compounds at random.
Answers are plain numbers, in %.

{"compound": "O=C(Nc1ccc(N2CCOCC2)cc1)c1cccc(Br)c1", "tested.on": "Huntingtin (Homo sapiens) (UniProt P42858)", "inhibition / %": -1.7}
{"compound": "O=C(COc1ccccc1)Nc1nc2ccccc2s1", "tested.on": "Huntingtin (Homo sapiens) (UniProt P42858)", "inhibition / %": -8.3}
{"compound": "CSc1nc(SC)c2c3c(sc2n1)CSC(C)(C)C3", "tested.on": "Huntingtin (Homo sapiens) (UniProt P42858)", "inhibition / %": 2}
{"compound": "COc1ccc(OC)c(Nc2nc(CC(=O)Nc3nc4ccccc4s3)cs2)c1", "tested.on": "Huntingtin (Homo sapiens) (UniProt P42858)", "inhibition / %": 54.7}
{"compound": "O=C(c1ccc(C(F)(F)F)cc1)N1CCN(c2nc(CN3CCCC3)cs2)CC1", "tested.on": "Huntingtin (Homo sapiens) (UniProt P42858)", "inhibition / %": 1.28}
{"compound": "O=C(CC1CCCCC1)N1CCCC(COc2ccc(C(=O)N3CCCCC3)cc2)C1 (stereo unspecified)", "tested.on": "Huntingtin (Homo sapiens) (UniProt P42858)", "inhibition / %": 13.4}
{"compound": "CCn1cnnc1C1CCCCN1C(=O)c1cnccn1 (stereo unspecified)", "tested.on": "Huntingtin (Homo sapiens) (UniProt P42858)", "inhibition / %": 0.74}
{"compound": "CN1CCCc2cc(C(CNC(=O)c3ccccc3Cl)N3CCOCC3)ccc21 (stereo unspecified)", "tested.on": "Huntingtin (Homo sapiens) (UniProt P42858)", "inhibition / %": 19.8}
{"compound": "O=C1C2C3C=CC(C4CC34)C2C(=O)N1CC1CCCO1 (stereo unspecified)", "tested.on": "Huntingtin (Homo sapiens) (UniProt P42858)", "inhibition / %": 0.3}
{"compound": "CN1CCCN(C(=O)C2COC3(CCCCC3)N2C(=O)c2ccccc2)CC1 (stereo unspecified)", "tested.on": "Huntingtin (Homo sapiens) (UniProt P42858)", "inhibition / %": 1.3}

Now look at this entry.
The reported value for `CCOc1ccccc1CN1CCC(C(=O)N2CCN(Cc3ccccc3)CC2)CC1` in terms of inhibition is 2.9

---

molecular target: Huntingtin (Homo sapiens); test: mutant huntingtin-calmodulin interaction inhibitors – biochemical, AlphaScreen, primary screen (AID 1671202); conditions: AlphaScreen His-mHTT/GST-CaM binding, luminescence; at 15 µM;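 also: 0% = both proteins with DMSO and 100% = one protein alone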
The whole screen tested about 190,000 compounds, of which about 6,900 (3.6%) were called active. Rule as the data show it: active = inhibition above about 50%; inactive = the rest. This is one part of a sample in which actives are shown more often than they occur.
Response enum: YES (active), NO (inactive)

Some solved entries appear below for comparison.
{"molecule": "COc1cccc(CN2CCN(C/C=C/c3ccccc3)CC2)c1OC", "group": "NO"}
{"molecule": "CCN1CCCC1CNC(=O)c1ccc(Sc2ccc(C)cc2)c(NC(C)=O)c1 (configuration not stated)", "group": "NO"}
{"molecule": "CC1=C(C#N)C(=O)NC(=O)/C1=C\\c1ccc(-c2cccc(Cl)c2)o1", "group": "NO"}
{"molecule": "COc1ccccc1/C=C/CN1CCN(C)CC1", "group": "NO"}

Q: So what was the verdict on `Cc1ccc2nc(NCc3ccccc3)c(C=Nc3ccccc3)c(=O)n2c1` in this test?
A: NO

Q: Dear colleague, could you share the recorded outcome for `CCCNC(=O)C1CCN(Cc2c(C)n(CC)c3ccccc23)CC1` when you have a moment?
A: NO

Q: # fetch the recorded call for `Cc1cc(C)c(NC(=O)CNC(C)(C)C)c(C)c1` here
A: NO

Q: What is the recorded call for this molecule in the test? `COc1ccc(C=C2Oc3cc(OC(=O)c4ccc5c(c4)OCO5)ccc3C2=O)c(OC)c1OC`
A: NO

Q: What outcome does the record of this test show for Cc1ccc(NC(=O)N2CCCC(CC(=O)N3CCN(c4ccccc4F)CC3)C2)cc1 (configuration not stated) ?
A: NO

Q: # fetch the recorded call for `CC(C)N1C/C(=C\c2ccsc2)C(=O)/C(=C/c2ccsc2)C1` here
A: NO

Q: What did this assay record as the result for COc1cc(C2NC(C(=O)O)CS2)ccc1O (configuration not stated) ?
A: NO

Q: Hello, I am checking results. What call was entered for Cc1ccc(NC(=O)c2cnn3c2NC(c2ccco2)CC3C(F)(F)F)cc1C (configuration not stated) ?
A: NO

---

molecular target: Huntingtin (Homo sapiens); assay: mutant huntingtin-calmodulin interaction inhibitors – biochemical, AlphaScreen, primary screen (AID 1671202); details: AlphaScreen His-mHTT/GST-CaM binding, luminescence; at 15 µM, active compounds read high;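 also: 0% = both proteins with DMSO and 100% = one protein alone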
Hit rate of the full screen: of about 190,000 compounds, about 6,900 (3.6%) were called active. What follows is part of a selection rich in actives, with near analogues and random picks from the rest.
Could you label it 1 if measured inhibition is 10% or higher, and -1 otherwise?

{"molecule": "CC1CC(C)CN(S(=O)(=O)c2ccc(C(=O)Nc3nc(-c4ccccn4)cs3)cc2)C1 (configuration not stated)", "group": 1}
{"molecule": "COc1ccc(C(=O)Nc2cc(-c3ccccn3)no2)cc1", "group": -1}
{"molecule": "CC(=O)NCc1csc(C2CCN(S(=O)(=O)c3ccc(C)cc3C)CC2)n1", "group": -1}
{"molecule": "O=S1(=O)c2cccc3cccc(c23)N1Cc1cccc(F)c1", "group": -1}
{"molecule": "CC(C)NC(=O)c1ccc(C(=O)NC(C)C)nc1", "group": -1}

With those in mind, consider the next molecule.
Q: Could you tell me if the measured inhibition of COc1cccc(C2CC(=O)C3=C(C2)Nc2ccccc2NC3c2cccc(F)c2)c1 (configuration not stated) reaches 10% or more?
A: 1
